Target: ErbB4 (Homo sapiens, UniProt Q15303)
Sequence (Q15303 26-1308): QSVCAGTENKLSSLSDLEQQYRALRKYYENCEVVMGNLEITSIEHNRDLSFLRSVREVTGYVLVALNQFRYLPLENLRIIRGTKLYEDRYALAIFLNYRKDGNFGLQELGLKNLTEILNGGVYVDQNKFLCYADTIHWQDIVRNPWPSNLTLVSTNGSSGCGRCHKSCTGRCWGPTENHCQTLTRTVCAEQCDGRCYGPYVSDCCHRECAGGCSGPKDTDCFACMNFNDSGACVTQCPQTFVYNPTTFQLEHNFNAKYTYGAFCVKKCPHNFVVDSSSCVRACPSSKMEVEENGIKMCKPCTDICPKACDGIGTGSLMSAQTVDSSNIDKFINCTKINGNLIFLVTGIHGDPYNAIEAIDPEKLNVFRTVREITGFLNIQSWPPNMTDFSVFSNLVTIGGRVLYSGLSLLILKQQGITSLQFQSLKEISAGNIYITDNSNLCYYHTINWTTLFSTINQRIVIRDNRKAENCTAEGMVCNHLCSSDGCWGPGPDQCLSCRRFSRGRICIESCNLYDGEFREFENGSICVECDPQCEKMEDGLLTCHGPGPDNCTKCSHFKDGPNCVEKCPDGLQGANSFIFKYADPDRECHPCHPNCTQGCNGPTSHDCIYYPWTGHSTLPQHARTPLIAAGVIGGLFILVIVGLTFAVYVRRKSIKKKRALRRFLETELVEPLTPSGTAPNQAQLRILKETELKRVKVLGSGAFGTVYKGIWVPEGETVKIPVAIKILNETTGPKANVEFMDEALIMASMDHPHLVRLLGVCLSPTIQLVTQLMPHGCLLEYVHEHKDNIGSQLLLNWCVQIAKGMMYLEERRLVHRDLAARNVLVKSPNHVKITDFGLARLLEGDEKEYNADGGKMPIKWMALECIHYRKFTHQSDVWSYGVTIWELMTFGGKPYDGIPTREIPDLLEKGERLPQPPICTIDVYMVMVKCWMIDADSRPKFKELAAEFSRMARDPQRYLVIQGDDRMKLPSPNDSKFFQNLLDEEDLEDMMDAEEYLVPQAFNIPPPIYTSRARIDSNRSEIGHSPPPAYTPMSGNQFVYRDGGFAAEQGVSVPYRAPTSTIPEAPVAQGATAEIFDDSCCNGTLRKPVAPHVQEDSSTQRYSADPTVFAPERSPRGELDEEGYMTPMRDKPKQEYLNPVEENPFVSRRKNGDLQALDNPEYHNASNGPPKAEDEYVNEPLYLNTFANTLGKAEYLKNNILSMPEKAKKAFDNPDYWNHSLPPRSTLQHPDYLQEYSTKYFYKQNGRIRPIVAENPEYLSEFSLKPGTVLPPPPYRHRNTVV
Test: phospho-ErbB4 sandwich ELISA: stimulation of ErbB4 tyrosine phosphorylation in CEM/ErbB4 cells
Conditions: semi-automated; 0–30 μM; at least three independent trials; read-out: ErbB4 Tyrosine Phosphorylation EC50 ± SE
Please respond with reported EC50 for every item in the list.
Answers are plain numbers, in µM.

1. CCOc1ccc(CN(C(=O)[C@H](N)Cc2c[nH]c3ccccc23)C2CC2)cc1 = 2.1

Please examine the following record next.
Q) // map O=C(CC1c2ccccc2Oc2ccccc21)NCCOc1ccccc1 to recorded EC50 (system: ErbB4 (Homo sapiens, UniProt Q15303))
A) 4.1

###

Molecular target: ErbB4 (Homo sapiens, UniProt Q15303)
Experiment: phospho-ErbB4 sandwich ELISA: stimulation of ErbB4 tyrosine phosphorylation in CEM/ErbB4 cells
Settings: semi-automated; 0–30 μM; at least three independent trials; read-out: ErbB4 Tyrosine Phosphorylation EC50 ± SE
ATTRIBUTE_MEASURED: EC50 (nM)
Answers are plain numbers, in nM.

Example entries and their recorded answers appear below.
1. CCOC(=O)C1=C(N)OC2=C(C(=O)CC(C)(C)C2)C1C1CCCCC1 (stereo not drawn) = 680
2. CCC(=O)NC(N(Cc1ccccc1)Cc1ccccc1)C(Cl)(Cl)Cl (stereo not drawn) = 470

Please go through the list and note EC50 for each compound.
1. Cc1nn(-c2ccccc2)c2c1C(c1ccccc1F)SCC(=O)N2 (stereo not drawn)
2. COc1ccc(C2CCCN2C(=O)c2c(-c3ccccc3Cl)noc2C)cc1 (stereo not drawn)

A)
2000
380

Q) Recorded EC50 for O=C1NC(=O)/C(=C\c2ccc(OCc3ccc4ccccc4c3)c(I)c2)N1 , please?
A) 1500

###

Provide the reported pIC50 of each item.
System: BaF3/EGFR+ErbB4 cells
Assay: ErbB4-dependent (NRG1β-induced, IL3-independent) proliferation of BaF3/EGFR+ErbB4 cells, semi-automated MTT assay
Type: cell-based, Mouse
Settings: Mus musculus, BaF3, read-out: IC50 against 0.3 nM NRG1β; three independent trials; 120 h MTT; *Extrapolated value
One number for each entry, as −log10 of the molar value.

1. COc1ccc(C2CCCN2C(=O)c2c(-c3ccccc3Cl)noc2C)cc1 (centres unmarked) = 4.49

Continue with the compound presented below.
Q) May I ask what pIC50 has been recorded for O=[N+]([O-])c1ccc(CN2CCN(C3CCC(c4ccccc4)CC3)CC2)cc1 (centres unmarked) ?
A) 4.33

###

Provide the reported NRG1β Emax ± SE in the presence of candidate of each item.
Test system: BaF3/EGFR+ErbB4 cells
Assay: ErbB4-dependent (NRG1β-induced, IL3-independent) proliferation of BaF3/EGFR+ErbB4 cells, semi-automated MTT assay
Type: cell-based, Mouse
Details: candidate 30 μM; increasing NRG1β; three trials; 120 h MTT
In your response, put the unit directly after the numeric value.

Some entries whose results are on file:
1. CCOc1ccc(CN(C(=O)[C@H](N)Cc2c[nH]c3ccccc23)C2CC2)cc1 = 0 AU
2. O=C(Nc1cccc(O)c1)c1cc2nc(-c3ccccc3)cc(-c3ccccc3)n2n1 = 0.07 ± 0.01 AU
3. O=C(c1nn2c(c1Cl)NC(c1cccs1)CC2C(F)(F)F)N(Cc1ccccc1)Cc1ccccc1 (stereo not shown) = 0 AU

Then this compound:
Q) Tell me the measured NRG1β Emax ± SE in the presence of candidate of O=C1NC(=O)/C(=C\c2ccc(OCc3ccc4ccccc4c3)c(I)c2)N1 , please.
A) 0 AU

###

Please provide measured Emax for the entries that follow.
Biological target: ErbB4 (Homo sapiens)
Construct: expressed in transfected cells; host or cells: CEM/ErbB4 cells
Assay: phospho-ErbB4 sandwich ELISA: stimulation of ErbB4 tyrosine phosphorylation in CEM/ErbB4 cells
Type: cell-based
Details: percentage of ErbB4 tyrosine phosphorylation stimulated by 10 nM NRG1β; read-out: ErbB4 Tyrosine Phosphorylation Emax ± SE
One number for each entry, in %.

1) CCOC(=O)C1=C(N)OC2=C(C(=O)CC(C)(C)C2)C1C1CCCCC1 (centres unmarked) = 2.8

Would you mind giving Emax for every molecule in the list below?
1. O=S(=O)(NCc1cccnc1)c1ccc(Br)cc1Br
2. CCC(=O)NC(N(Cc1ccccc1)Cc1ccccc1)C(Cl)(Cl)Cl (centres unmarked)

A)
[3, 4.7]

###

Biological target: ErbB4 (Homo sapiens, UniProt Q15303)
Test: phospho-ErbB4 sandwich ELISA: stimulation of ErbB4 tyrosine phosphorylation in CEM/ErbB4 cells
Conditions: semi-automated; 0–30 μM; at least three independent trials; read-out: ErbB4 Tyrosine Phosphorylation EC50 ± SE
ATTRIBUTE_MEASURED: EC50

Take a look at these entries with their results.
1. O=C(c1nn2c(c1Cl)NC(c1cccs1)CC2C(F)(F)F)N(Cc1ccccc1)Cc1ccccc1 (stereo not drawn) = < 300 nM
2. O=S(=O)(NCc1cccnc1)c1ccc(Br)cc1Br = < 300 nM

Please turn your attention to the following entry.
Q) For CCCOc1ccc(C(=O)C(CCCCC(CN(C)C)C(=O)c2ccc(OCCC)cc2)CN(C)C)cc1 (stereo not drawn) , what is its reported EC50?
A) < 300 nM

###

For each of the molecules below, state its Emax.
Target: ErbB4 (Homo sapiens)
Construct: expressed in transfected cells; host or cells: CEM/ErbB4 cells
Assay: phospho-ErbB4 sandwich ELISA: stimulation of ErbB4 tyrosine phosphorylation in CEM/ErbB4 cells
Assay type: cell-based
Conditions: percentage of ErbB4 tyrosine phosphorylation stimulated by 10 nM NRG1β; read-out: ErbB4 Tyrosine Phosphorylation Emax ± SE
One number for each entry, in %.

1) O=C1NC(=O)/C(=C\c2ccc(OCc3ccc4ccccc4c3)c(I)c2)N1 = 1.4

Report Emax for every entry below.
1. COc1cc(CNCC2CCNCC2)cc(Cl)c1OCc1ccc(C)cc1
2. O=C(Nc1cccc(O)c1)c1cc2nc(-c3ccccc3)cc(-c3ccccc3)n2n1
3. O=C(c1nn2c(c1Cl)NC(c1cccs1)CC2C(F)(F)F)N(Cc1ccccc1)Cc1ccccc1 (centres unmarked)
4. COc1ccc(C2CCCN2C(=O)c2c(-c3ccccc3Cl)noc2C)cc1 (centres unmarked)
5. O=C1NC2=Nc3ccccc3SC(c3ccccc3)=C2C(c2ccc(O)cc2)N1 (centres unmarked)
6. O=C(CC1c2ccccc2Oc2ccccc21)NCCOc1ccccc1
7. Cc1nn(-c2ccccc2)c2c1C(c1ccccc1F)SCC(=O)N2 (centres unmarked)
8. CCCOc1ccc(C(=O)C(CCCCC(CN(C)C)C(=O)c2ccc(OCCC)cc2)CN(C)C)cc1 (centres unmarked)

A)
2.9
2.7
2.1
1.4
2.3
1.8
1.2
5.9

For each of the items listed, what is its Emax?
1. CCOc1ccc(CN(C(=O)[C@H](N)Cc2c[nH]c3ccccc23)C2CC2)cc1
2. O=[N+]([O-])c1ccc(CN2CCN(C3CCC(c4ccccc4)CC3)CC2)cc1 (centres unmarked)

A)
[5.2, 1.8]

These entries and their values trace back to paper PMC7773179.
